Answer each item with its documented solubility.
- ASSAY_COMMENT: Evaluation of solubility of thiazolothiazole derivatives in organic solvents
- Type: physicochemical
- EXPERIMENTAL_SETUP: organic solvent or mixture, thermodynamic from solid; 10 mg (1.0 weight %) in 1 ml toluene; 25° C., else heated to boiling temperature; naked eye; read-out: Solubility Toluene

| COMPOUND | solubility |
| --- | --- |
| CCCCCCCCc1cc(-c2ccc(CCCC)cc2)sc1-c1nc2sc(-c3sc(-c4ccc(CCCC)cc4)cc3CCCCCCCC)nc2s1 [Exemplary Compound (25)] | > 10000 µg/mL |

Value sought for every listed compound: solubility.
1. CCCCCCCCc1ccc(-c2cc(C)c(-c3nc4sc(-c5sc(-c6ccc(CCCCCCCC)cc6)cc5C)nc4s3)s2)cc1 [Exemplary Compound (8)]
2. CCCCOc1ccc(-c2ccc(-c3nc4sc(-c5ccc(-c6ccc(OCCCC)cc6)s5)nc4s3)s2)cc1 [Exemplary Compound (11)]
3. c1csc(-c2ccc(-c3nc4sc(-c5ccc(-c6cccs6)s5)nc4s3)s2)c1 [Compound 3, reference compound]
4. CCCCCCCCc1ccc(-c2cc(CCCCCCCC)c(-c3nc4sc(-c5sc(-c6ccc(CCCCCCCC)cc6)cc5CCCCCCCC)nc4s3)s2)cc1 [Exemplary Compound (27)]

Ans:
1. < 10000 µg/mL
2. < 10000 µg/mL
3. < 10000 µg/mL
4. > 10000 µg/mL

Ref: patent US7812172B2
